target: IRAK1 (Homo sapiens, UniProt P51617); assay: HotSpot radioisotope filter-binding kinase assay; type: biochemical; details: IC50, recombinant kinase, 10 μM ATP
Sequence (P51617 whole entry): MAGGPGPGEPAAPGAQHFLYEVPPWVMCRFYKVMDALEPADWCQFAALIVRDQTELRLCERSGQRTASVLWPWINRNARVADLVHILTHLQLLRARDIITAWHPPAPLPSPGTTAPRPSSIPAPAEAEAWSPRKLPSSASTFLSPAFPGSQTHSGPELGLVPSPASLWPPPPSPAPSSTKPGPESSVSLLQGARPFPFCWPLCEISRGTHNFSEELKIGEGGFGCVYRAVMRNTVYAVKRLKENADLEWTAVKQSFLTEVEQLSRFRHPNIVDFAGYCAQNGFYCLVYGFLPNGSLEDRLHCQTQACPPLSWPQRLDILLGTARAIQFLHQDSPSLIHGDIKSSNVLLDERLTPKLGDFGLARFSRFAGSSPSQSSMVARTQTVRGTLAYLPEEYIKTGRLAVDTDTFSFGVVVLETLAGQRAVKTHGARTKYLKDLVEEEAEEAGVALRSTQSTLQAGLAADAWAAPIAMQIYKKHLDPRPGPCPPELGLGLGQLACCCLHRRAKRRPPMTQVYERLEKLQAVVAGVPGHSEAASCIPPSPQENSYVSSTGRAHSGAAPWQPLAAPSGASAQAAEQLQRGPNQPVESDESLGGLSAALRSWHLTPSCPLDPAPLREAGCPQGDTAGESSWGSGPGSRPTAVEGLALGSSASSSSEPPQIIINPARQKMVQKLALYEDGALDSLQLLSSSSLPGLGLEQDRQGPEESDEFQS
observable: pIC50
Note on units: pIC50 is unitless, being -log10 of a concentration expressed in mol/L.

pIC50 on IRAK1 (Homo sapiens, UniProt P51617) for C1=C/COCc2cc(ccc2OCCN2CCCC2)Nc2nccc(n2)-c2cccc(c2)COC/1 is 7.87

----------
biological target: CSF1R (c-fms) (Homo sapiens); experiment: HotSpot radioisotope filter-binding kinase assay; format: biochemical; conditions: IC50, recombinant kinase, 10 μM ATP
Sequence (P07333 20-972): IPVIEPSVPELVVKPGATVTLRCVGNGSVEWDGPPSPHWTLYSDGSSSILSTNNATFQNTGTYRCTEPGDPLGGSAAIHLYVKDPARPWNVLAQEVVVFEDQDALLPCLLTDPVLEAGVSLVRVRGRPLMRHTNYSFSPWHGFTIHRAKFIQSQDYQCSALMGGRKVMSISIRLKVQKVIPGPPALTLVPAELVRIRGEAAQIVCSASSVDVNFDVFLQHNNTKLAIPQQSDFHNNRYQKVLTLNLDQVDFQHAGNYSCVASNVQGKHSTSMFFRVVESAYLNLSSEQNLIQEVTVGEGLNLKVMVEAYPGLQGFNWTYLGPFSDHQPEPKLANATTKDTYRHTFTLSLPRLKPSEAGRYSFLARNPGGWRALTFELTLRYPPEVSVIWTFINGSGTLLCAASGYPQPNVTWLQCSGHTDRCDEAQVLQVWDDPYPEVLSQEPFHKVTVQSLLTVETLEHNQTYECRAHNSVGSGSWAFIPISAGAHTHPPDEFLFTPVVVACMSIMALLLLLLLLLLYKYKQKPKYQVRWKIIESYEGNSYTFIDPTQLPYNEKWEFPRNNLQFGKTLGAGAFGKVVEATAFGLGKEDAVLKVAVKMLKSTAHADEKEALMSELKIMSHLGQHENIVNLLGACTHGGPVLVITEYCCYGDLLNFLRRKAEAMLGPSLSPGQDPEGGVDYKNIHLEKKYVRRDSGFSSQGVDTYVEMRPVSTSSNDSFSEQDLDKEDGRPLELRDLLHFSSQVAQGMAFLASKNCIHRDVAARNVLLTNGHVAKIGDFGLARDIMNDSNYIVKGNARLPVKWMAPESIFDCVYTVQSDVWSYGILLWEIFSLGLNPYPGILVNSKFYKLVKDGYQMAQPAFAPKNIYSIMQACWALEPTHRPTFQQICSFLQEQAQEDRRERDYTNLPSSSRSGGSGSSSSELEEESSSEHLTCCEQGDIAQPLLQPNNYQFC
pIC50: −log10 of the molar value.
observable: pIC50

pIC50 on CSF1R (c-fms) (Homo sapiens) for C1=C/COCc2cc(ccc2OCCN2CCCC2)Nc2nccc(n2)-c2cccc(c2)COC/1 is > 7.30
